Test system: HN5
Measurement notes: Antiproliferative activity against human HN5 cells overexpressing EGFR after 3 days by methylene blue staining
Experimental conditions: HN5, 72 h
Attribute: log10 IC50
On a log10 scale: recorded IC50, unit nM.

- CCC(=O)O[C@H]1CN[C@H](C#Cc2cc3ncnc(Nc4ccc(OCc5cccc(F)c5)c(Cl)c4)c3s2)C1: 1.72
- Fc1cccc(COc2ccc(Nc3ncnc4cc(C#C[C@H]5CCCN5)sc34)cc2Cl)c1: 2.38
- Fc1cccc(COc2ccc(Nc3ncnc4cc(C#C[C@@H]5CCCN5)sc34)cc2Cl)c1: 2.73

Continue with the next compound.
Give log10 IC50 only, for COC(=O)N1CCC[C@@H]1C#Cc1cc2ncnc(Nc3ccc(OCc4cccc(F)c4)c(Cl)c3)c2s1 , using HN5 data. 2.77
